Entry source: the RNAGym collection of RNA variant scans (doi:10.7554/elife.80360)

B1: CPEB3 Ribozyme (parent)
chain: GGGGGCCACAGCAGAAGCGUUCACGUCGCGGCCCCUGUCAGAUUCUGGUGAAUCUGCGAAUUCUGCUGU

Variants of: B1
Assay: self-cleavage, relative activity (ratio to wild type); higher = more cleavage; co-transcriptional
Value kind: self-cleavage

GGGGGCCACAGCAGAAGCGUUCACGUCGCGGGCCCUGUCAGAUACUGGUGAAUCUGCGAAUUCUGCUGU 0.385
GGGGGCCACAGCAGAAGCGUUCACGUCGCGGCCCCUGUCAGAUUCUGGCGAAUCUGCGAAUUCUCCUGU 0.634
GGGGGCCACAGCAGAAGCGUUCACGUCGCGGCCCCUGUCAGAUUCUUGUGAAUCUGCGAAUCCUGCUGU 0.912
GGGGGCCACAGCAGAAGCGUUCACGUCGCGCUCCCUGUCAGAUUCUGGUGAAUCUGCGAAUUCUGCUGU 0.235
GGGGGCCACAGCAGGAGCGUUCACGUCGCGGCCCCUGUCAGAUUCUGGUAAAUCUGCGAAUUCUGCUGU 0.973

Any idea what self-cleavage was measured for GGGGGCCACAGCAGAAGCGUUCACGUCGCGGCCCCUGUCAGAUUCUGUUGAAUCUGCUAAUUCUGCUGU ?
0.999

Same thing, different variant: GGGGGCCACAGCAGAAGCGUUCACGUCGCGGCCCCUAUCAGAGUCUGGUGAAUCUGCGAAUUCUGCUGU
0.359
